biological target: Alpha-1A adrenergic receptor (Homo sapiens); format: functional, cell-based; also: assay procedure not described here
Sequence (P35348 whole entry): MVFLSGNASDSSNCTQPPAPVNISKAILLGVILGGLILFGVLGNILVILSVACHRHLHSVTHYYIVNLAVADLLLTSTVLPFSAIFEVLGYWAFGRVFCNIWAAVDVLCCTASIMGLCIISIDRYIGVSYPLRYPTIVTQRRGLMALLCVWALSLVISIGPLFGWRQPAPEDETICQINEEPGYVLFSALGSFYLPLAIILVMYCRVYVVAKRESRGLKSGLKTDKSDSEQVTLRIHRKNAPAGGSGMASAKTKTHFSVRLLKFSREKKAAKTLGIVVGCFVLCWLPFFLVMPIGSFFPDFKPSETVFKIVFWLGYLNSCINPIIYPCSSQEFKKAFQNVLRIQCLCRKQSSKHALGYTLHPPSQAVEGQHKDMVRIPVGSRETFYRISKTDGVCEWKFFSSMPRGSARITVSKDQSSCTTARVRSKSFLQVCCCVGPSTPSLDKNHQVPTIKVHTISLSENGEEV
For each of the compounds below, state its AC50.

q: Param readout = AC50; param system = Alpha-1A adrenergic receptor (Homo sapiens); param query = CC(=O)O[C@H]1C[C@H](O[C@H]2[C@@H](O)C[C@H](O[C@H]3[C@@H](O)C[C@H](O[C@H]4CC[C@@]5(C)[C@H](CC[C@@H]6[C@@H]5C[C@@H](O)[C@]5(C)[C@@H](C7=CC(=O)OC7)CC[C@]65O)C4)O[C@@H]3C)O[C@@H]2C)O[C@H](C)[C@H]1O[C@@H]1O[C@H](CO)[C@@H](O)[C@H](O)[C@H]1O [LANATOSIDE C] ; response: value; also: assay procedure not described here
a: > 30 µM

q: Under Alpha-1A adrenergic receptor (Homo sapiens): AC50 value of CCCC(=O)O[C@H]1[C@H](C)O[C@@H](O[C@H]2[C@H](N(C)C)[C@@H](O)[C@H](O[C@H]3[C@@H](CC=O)C[C@@H](C)[C@@H](O)/C=C/C=C/C[C@@H](C)OC(=O)C[C@@H](O)[C@@H]3OC)O[C@@H]2C)C[C@@]1(C)OC(=O)CC ?
a: > 30 µM

q: What is its AC50 for Alpha-1A adrenergic receptor (Homo sapiens)? Entry: CCCCCCCCCCCCCCCC(=O)OC/C=C(C)/C=C/C=C(C)/C=C/C1=C(C)CCCC1(C)C [VITAMIN A PALMITATE]
a: > 30 µM

q: What measured AC50 is associated with COC(=O)C1=C(C)NC(C)=C(C(=O)O[C@H]2CCN(Cc3ccccc3)C2)[C@H]1c1cccc([N+](=O)[O-])c1 on Alpha-1A adrenergic receptor (Homo sapiens)?
a: 1.31 µM
